Reference source for all entries: PubChem BioAssay (NCI)

# Test system: UACC-62 melanoma
# ASSAY OVERVIEW: NCI tumour cell line growth inhibition, 48 h; in the data active = GI50 below about 0.43 µM; inactive = the rest
Please state which outcome applies, choosing from active, inactive

COMPOUND: C[CH2][Pb]([CH2]C)([CH2]C)[O]C(=O)COC
ASSIGNED CLASS: active

COMPOUND: Nc1c(C(=O)Nc2cccc(C(F)(F)F)c2)sc2nc3c(cc12)C(O)CCC3 (stereo unspecified)
ASSIGNED CLASS: inactive

COMPOUND: COc1cc(-c2nn(-c3cccc(NC(=O)Nc4cccc(C(F)(F)F)c4)c3)cc2-c2ccncc2)ccc1Cl
ASSIGNED CLASS: inactive

COMPOUND: CC(C)Oc1ccc(-c2nn([C@@H](C)c3oc4ccc(F)cc4c(=O)c3-c3cccc(F)c3)c3ncnc(N)c23)cc1F
ASSIGNED CLASS: inactive

COMPOUND: N/C(=N\N=C/c1c2ccccc2c(Cl)c2ccccc12)NO
ASSIGNED CLASS: inactive

COMPOUND: CC1(C)CC[C@]2(C(=O)Nc3ccccn3)CC[C@]3(C)C(=CC[C@@H]4[C@@]5(C)C/C(=C/c6ccncc6)C(=O)C(C)(C)[C@@H]5CC[C@]43C)[C@@H]2C1
ASSIGNED CLASS: inactive

Status in this test for O=C(O)c1ccc(NCc2nc3cc(Cl)c(Cl)cc3[nH]2)cc1 ? inactive

Check the results log: what was the call for Cn1c(-c2ccncc2)c(-c2ccc(F)cc2)c2ncccc21 ? inactive

What did this assay record as the result for O=C(OCC1OC(n2cc(C(F)(F)F)c(=O)[nH]c2=O)CC1OC(=O)c1ccc([N+](=O)[O-])cc1)c1ccc([N+](=O)[O-])cc1 (stereo unspecified) ? inactive

State the result this test recorded for O=C1C=CC2(O)OC/C(=C\c3ccccc3)C(O)=C2C1=O (stereo unspecified) . inactive

Record request — test call for COC(=O)/C=C1/SC(=Nc2ccc(F)cc2)N(CCc2c[nH]c3ccc(O)cc23)C1=O inactive

Could you check what this test reported for Cn1cc(-c2csc(-c3c[nH]c4ccccc34)n2)c2cnccc21 ? inactive

How was Cc1cc(=O)n2nnc3c4ccccc4ccc3n12 classified in this test? inactive

###

# Test system: SK-MEL-2 melanoma
# ASSAY OVERVIEW: NCI tumour cell line growth inhibition, 48 h
ASSAY METRIC: TGI

MOLECULE: COc1ccc(OC)c(C#N)c1C#N (tested in a mixture with another compound)
TESTED SYSTEM: SK-MEL-2 melanoma
TGI: > 100 µM
//
MOLECULE: Nc1ncnc2c1ncn2C1CC(O)C(CO)O1 (stereo unspecified)
TESTED SYSTEM: SK-MEL-2 melanoma
TGI: > 100 µM
//
MOLECULE: O=C1Nc2c(Cl)cc(Cl)cc2C1=O
TESTED SYSTEM: SK-MEL-2 melanoma
TGI: 29.7 µM

// TGI lookup, key: CC(C)Oc1ccc(-c2nn([C@@H](C)c3oc4ccc(F)cc4c(=O)c3-c3cccc(F)c3)c3ncnc(N)c23)cc1F > 100 µM

Returns the measured TGI for the input molecule. Input: Cc1cc(Cl)ccc1OCc1nn2c(CCCCc3nnc4sc(COc5ccc(Cl)cc5C)nn34)nnc2s1 > 89.5 µM

###

# Test system: NCI/ADR-RES ovarian
# ASSAY OVERVIEW: NCI tumour cell line growth inhibition, 48 h
Rule: TGI under 10 µM gives no, otherwise yes.

MOLECULE: CN(C)CC1CC/C(=C\c2ccc(Cl)cc2)C1=O (stereo unspecified)
TESTED SYSTEM: NCI/ADR-RES ovarian
ASSIGNED CLASS: yes
--
MOLECULE: Cc1cc(Cl)ccc1OCc1nn2c(CCCCc3nnc4sc(COc5ccc(Cl)cc5C)nn34)nnc2s1
TESTED SYSTEM: NCI/ADR-RES ovarian
ASSIGNED CLASS: yes
--
MOLECULE: c1ccc2nc(N/N=C3\CCCCC3C3CCCCC3)ccc2c1 (stereo unspecified)
TESTED SYSTEM: NCI/ADR-RES ovarian
ASSIGNED CLASS: yes

Hi team, for C=C1c2nc3ccccc3n2C=C(c2ccc(C)cc2)N1c1ccccc1 , is the recorded TGI at or above 10 µM? yes

Quick check, TGI >= 10 µM? CCCCNC(=O)c1cc(S(=O)(=O)n2cc[nH]c2=O)c(SC)cc1Cl yes

Textbook exercise: given the entry COc1ccc(OC)c(C#N)c1C#N (tested in a mixture with another compound) , state whether its TGI is greater than or equal to 10 µM. yes

Given Cc1ccc(CN(C)c2ccc(CO)c(Cl)c2)cc1 , state whether its TGI is at least 10 µM. yes

Please check the record CC(=O)/C=c1\[nH]/c(=C\C=C\c2ccccc2)c(=O)n1/C=C1\C(=O)Oc2ccccc2C1=O and state if its TGI is at or above 10 µM. yes

TGI >= 10 µM for Clc1ccc(Cn2c(CN3CCCC3)nc3ccccc32)cc1 ? yes

Please check the record Nc1c(C(=O)Nc2cccc(C(F)(F)F)c2)sc2nc3c(cc12)C(O)CCC3 (stereo unspecified) and state if its TGI is at or above 10 µM. yes

###

# Test system: RXF 393 renal
# ASSAY OVERVIEW: NCI tumour cell line growth inhibition, 48 h; in the data active means GI50 below about 0.43 µM; inactive means the rest
Can you answer with just one of these options? 1.0 = active, 0.0 = inactive

These recorded examples may help you get a feel for the data.
MOLECULE: COc1ccc(C(=S)N(C)NC(=O)CC(=O)NN(C)C(=S)c2ccc(OC)cc2)cc1
ASSIGNED CLASS: 0.0
--
MOLECULE: CC(C)N(CCCNC(=O)Nc1ccc(C(C)(C)C)cc1)C[C@H]1O[C@@H](n2ccc3c(N)ncnc32)[C@H](O)[C@@H]1O
ASSIGNED CLASS: 0.0

What did this assay record as the result for CC1(C)CC[C@]2(C(=O)Nc3ccccn3)CC[C@]3(C)C(=CC[C@@H]4[C@@]5(C)C/C(=C/c6ccncc6)C(=O)C(C)(C)[C@@H]5CC[C@]43C)[C@@H]2C1 ? 0.0

How was COc1cc(C2CC(c3cccc(Nc4ccncc4)c3)=NN2c2ccccc2)cc(OC)c1OC (stereo not given) classified in this test? 0.0

Hi, sorry to bother you, what did the test record for COc1cc(OC)c(/C=C/c2cc[n+](C)c3ccccc23)c(OC)c1 ? 0.0

Give the logged outcome of this assay for the following molecule: O=c1ccccc(-c2ccc(Br)cc2)c1O 1.0

Recorded test outcome, item COc1cc(/C=C2\C(=O)Nc3ccccc32)cc(OC)c1O 0.0

Could you kindly confirm the outcome this assay logged for CCN(CC)CC(O)CNc1c2ccc(Cl)cc2nc2ccc(OC)cc12 (stereo not given) ? 0.0

###

# Lookup of reported TGI keyed by entry
# Test system: SNB-19 CNS
# ASSAY OVERVIEW: NCI tumour cell line growth inhibition, 48 h

Consider the following illustrative entries.
MOLECULE: CCOP(=O)(O)CC1OC(CO)C(O)C1O (stereo not given)
ASSAY METRIC: TGI
OBSERVED: > 100 µM
--
MOLECULE: CCOC(=O)[C@@H]1[C@@H]2NC(=O)N[C@@]1(C)Oc1ccccc12
ASSAY METRIC: TGI
OBSERVED: > 100 µM
--
MOLECULE: C=C(C)c1cc(C(C)(C)C)cc(C(=C)C)c1S(C)(=O)=O
ASSAY METRIC: TGI
OBSERVED: > 100 µM
--
MOLECULE: N#CC(C/C=C/c1ccccc1)NNC(=O)c1c(Cl)c(Cl)c(Cl)c(Cl)c1-c1nc2ccc(C(=O)c3ccccc3)cc2[nH]1 (stereo not given)
ASSAY METRIC: TGI
OBSERVED: 35.8 µM
--
MOLECULE: COC[C@@H]1[C@H]2OC(C)(C)O[C@H]2C(=O)N1C(=O)c1ccc(OC)cc1
ASSAY METRIC: TGI
OBSERVED: > 100 µM
--
MOLECULE: C=C1C(O)C2C(=C(CCC3CC3)C13CC3)C(=O)C(C)(C)C2O (stereo not given)
ASSAY METRIC: TGI
OBSERVED: > 100 µM

Next item in the queue.
# returns recorded TGI (system: SNB-19 CNS) for Cc1cc(Cl)ccc1OCc1nn2c(CCCCc3nnc4sc(COc5ccc(Cl)cc5C)nn34)nnc2s1 > 80.4 µM

###

Readings of log10 of TGI for the listed compounds
# Tested on: M14 melanoma
# ASSAY OVERVIEW: NCI tumour cell line growth inhibition, 48 h
Scale type: logarithmic (base 10). Underlying TGI unit: µM.

COMPOUND: COc1ccc(/C=C2\CCC(CN3CCOCC3)C2=O)cc1 (stereo unspecified)
log10 of TGI: 0.72
//
COMPOUND: COc1ccc(/C=C/C2C(C#N)=C(N)OC3=C2C(=O)CCC3)cc1 (stereo unspecified)
log10 of TGI: 1.70
//
COMPOUND: COc1ccc(C(=O)c2sc3nc4c(cc3c2N)CCCC4)cc1OC
log10 of TGI: 1.06
//
COMPOUND: COc1cc2c3c(n(CCCNC4=NCCS4)c(=O)c2cc1OC)-c1cc2c(cc1C3=O)OCO2
log10 of TGI: -0.70

Next compound, log10 of TGI to be filled in.
Given C[C@]12CCC(N3CCCC3)CC1=CC[C@@H]1[C@@H]2CC[C@]2(C)C(O)[C@H](n3ccnc3)C[C@@H]12 (stereo partly specified) , state its recorded log10 of TGI. 1.54
